activation at 3 µM for assorted compounds
Biological target: rat α7 nAChRs (Rattus norvegicus, UniProt Q05941)
Construct: expressed in transfected cells; host or cells: GH4C1 (rat pituitary cell line) stably expressing α7 nAChR
Sequence (Q05941 23-502): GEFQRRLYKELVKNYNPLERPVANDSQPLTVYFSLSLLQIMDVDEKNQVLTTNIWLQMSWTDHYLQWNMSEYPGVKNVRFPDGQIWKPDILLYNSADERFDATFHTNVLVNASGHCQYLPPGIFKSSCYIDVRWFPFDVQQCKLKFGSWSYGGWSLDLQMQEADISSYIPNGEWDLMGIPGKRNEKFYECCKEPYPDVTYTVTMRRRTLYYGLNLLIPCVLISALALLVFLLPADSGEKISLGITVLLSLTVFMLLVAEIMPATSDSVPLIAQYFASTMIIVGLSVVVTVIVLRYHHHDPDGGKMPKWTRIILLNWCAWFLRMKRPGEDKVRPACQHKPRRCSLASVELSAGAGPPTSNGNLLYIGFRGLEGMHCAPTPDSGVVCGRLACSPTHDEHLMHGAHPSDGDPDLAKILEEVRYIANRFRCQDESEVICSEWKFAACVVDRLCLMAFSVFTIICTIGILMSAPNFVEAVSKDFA
Assay: Automated planar patch clamp (Patchliner) for α7 nAChR positive allosteric modulation
Assay type: cell-based
Details: GH4-C1; 3 μM compound in the presence of acetylcholine; GH4C1 cells expressing rat α7 nAChRs; relative to control ACh response; read-out: Peak potentiation at 3 μM compound
Reply numerically in %, unit not repeated.

Known results for compounds:
Cn1cc(-c2ccc3c(c2)c(C(=O)Nc2ccnc(C(F)(F)F)c2)cn3C)cn1    78
Cn1cc(C(=O)Nc2ccnc(C(F)(F)F)c2)c2cc(F)ccc21    326
CCn1cc(C(=O)Nc2ccnc(C(F)(F)F)n2)c2cc(F)ccc21    30
Cc1ccc2c(c1)c(C(=O)Nc1cc(C(F)(F)F)ncn1)cn2C    428

# context switch: different compound, same activation at 3 µM
[Q] Consider the compound CC(C)n1cc(C(=O)Nc2cncc(F)c2)c2cc(F)ccc21 and give its measured activation at 3 µM.
[A] 374

---

T-maze % control at 10 mg/kg overview
Test system: mice
Assay: T-maze Continuous Alternation Task (T-CAT), scopolamine-induced cognitive impairment
Assay type: in vivo
Details: mouse, dosed orally at 10 mg/kg, scopolamine-induced disruption of spontaneous alternation
# output: bare number, implied unit %

CCn1cc(C(=O)Nc2ccc(C(F)(F)F)nc2)c2cc(F)ccc21    73
Cc1ccc2c(c1)c(C(=O)Nc1ccnc(C(F)(F)F)c1)cn2C    80
Cn1cc(C(=O)Nc2ccnc(C(F)(F)F)c2)c2cc(F)ccc21    78
CCn1cc(C(=O)Nc2cncc(F)c2)c2cc(F)ccc21    70

Next item in the queue.
[Q] Request the reported T-maze % control at 10 mg/kg associated with CCn1cc(C(=O)Nc2cc(C(F)(F)F)ncn2)c2cc(F)ccc21
[A] 76

---

Target: rat α7 nAChRs (Rattus norvegicus, UniProt Q05941)
Construct: expressed in transfected cells; host or cells: GH4C1 (rat pituitary cell line) stably expressing α7 nAChR
Assay: Automated planar patch clamp (Patchliner) for α7 nAChR positive allosteric modulation
Type: cell-based
Conditions: GH4-C1; 3 μM compound in the presence of acetylcholine; GH4C1 cells expressing rat α7 nAChRs; relative to control ACh response; read-out: Peak potentiation at 3 μM compound
property.label: activation at 3 µM (%)
Reply with just the number (in %).

Worked set:
O=C(Nc1ccnc(C(F)(F)F)c1)c1cn(CCO)c2ccc(F)cc12    257
Cc1ccc2c(c1)c(C(=O)Nc1ccnc(C(F)(F)F)c1)cn2C    663
Cn1cc(C(=O)Nc2cncc(F)c2)c2cc(C(F)(F)F)ccc21    41

[Q] Which measured activation at 3 µM value corresponds to Cn1cc(C(=O)Nc2ccnc(C(F)(F)F)c2)c2cc(C(F)(F)F)ccc21 ?
[A] 83
